Reported Percent inhibition of elastase activity (%) by item:
- Tested on: elastase
- Measurement Protocol: Elastase activity-inhibiting test in cultured human fibroblast
- Format: biochemical
- Condition: 0.1 mM; human fibroblast enzyme solution, substrate N-succinyl-(Ala)3-p-nitroanilide, 37° C. 1 hour
Express the result in % but write the number alone.

| Compound | Endpoint Result |
| --- | --- |
| CC(C)CC(NC(=O)C(CC(C)C)NP(=O)(O)CCc1ccccc1)C(=O)O (centres unmarked) | 90.2 |

Query: Requested read-out Percent inhibition of elastase activity (%), target or system elastase, entry CC(C)CC(NP(=O)(O)OC1OC(C)C(O)C(O)C1O)C(=O)NC(Cc1c[nH]c2ccccc12)C(=O)O (centres unmarked)
Reply: 85.6

Query: Check O=C(O)CNC(=O)C(CS)Cc1ccccc1 (centres unmarked) too.
Reply: 89.6

Query: Check O=C(O)CCNC(=O)C(CS)Cc1ccccc1 (centres unmarked) too.
Reply: 85.4

Query: Check CC(C)CC(NP(=O)(O)CCc1ccccc1)C(=O)NC(Cc1c[nH]c2ccccc12)C(=O)O (centres unmarked) too.
Reply: 82.1

---

Reported inhibition at 10 µM by item:
- Target Desc: neutral endopeptidase (Homo sapiens, UniProt P08473)
- Construct: suspended in a 0.1% Triton X-100/0.2 M Tris-HCl buffer (pH: 8.0) and ultrasonically disrupted to use as an enzyme solution; host or cells: normal human fibroblasts, Triton X-100 lysate
- Sequence (P08473 whole entry): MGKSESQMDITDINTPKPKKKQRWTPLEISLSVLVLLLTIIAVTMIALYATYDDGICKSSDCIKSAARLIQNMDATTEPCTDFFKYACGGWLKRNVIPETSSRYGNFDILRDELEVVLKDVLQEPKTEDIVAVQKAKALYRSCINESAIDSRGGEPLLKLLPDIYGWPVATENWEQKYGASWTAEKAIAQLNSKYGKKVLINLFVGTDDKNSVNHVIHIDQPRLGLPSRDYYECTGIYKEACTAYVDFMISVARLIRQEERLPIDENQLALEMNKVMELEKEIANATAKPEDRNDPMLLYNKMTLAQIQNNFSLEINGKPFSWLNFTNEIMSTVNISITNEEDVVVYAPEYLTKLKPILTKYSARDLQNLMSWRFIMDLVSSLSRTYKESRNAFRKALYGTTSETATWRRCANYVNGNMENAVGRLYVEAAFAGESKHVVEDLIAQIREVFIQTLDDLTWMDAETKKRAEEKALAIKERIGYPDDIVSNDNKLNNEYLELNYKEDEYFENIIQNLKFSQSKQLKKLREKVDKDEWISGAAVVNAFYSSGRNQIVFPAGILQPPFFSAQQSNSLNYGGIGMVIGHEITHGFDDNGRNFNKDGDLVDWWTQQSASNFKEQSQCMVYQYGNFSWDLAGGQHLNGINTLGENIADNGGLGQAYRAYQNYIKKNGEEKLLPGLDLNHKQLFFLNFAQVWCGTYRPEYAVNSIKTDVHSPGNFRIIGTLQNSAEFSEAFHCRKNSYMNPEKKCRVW
- Measurement Protocol: Neutral endopeptidase activity-inhibiting test in cultured human fibroblast
- Type: biochemical
- Condition: human fibroblast enzyme solution, substrate glutaryl-Ala-Ala-Phe-4-methoxy-2-naphthylamine, read-out: Percent inhibition of neutral endopeptidase activity (%)
Express the result in % but write the number alone.

These recorded examples may help you get a feel for the data.
| Molecule | inhibition at 10 µM [%] |
| --- | --- |
| O=C(O)CCNC(=O)C(CS)Cc1ccccc1 (stereo not shown) | 97.1 |
| CC(C)CC(NP(=O)(O)CCc1ccccc1)C(=O)NC(Cc1c[nH]c2ccccc12)C(=O)O (stereo not shown) | 98.8 |
| CC(C)CC(NP(=O)(O)OC1OC(C)C(O)C(O)C1O)C(=O)NC(Cc1c[nH]c2ccccc12)C(=O)O (stereo not shown) | 99 |

With those in mind, consider the next molecule.
Query: Requested read-out inhibition at 10 µM, target or system neutral endopeptidase (Homo sapiens, UniProt P08473), entry O=C(O)CNC(=O)C(CS)Cc1ccccc1 (stereo not shown)
Reply: 96.3
